Recorded DC50 for the following molecules
Target: PTPN2 (B16F10.4 cells) (Mus musculus)
Construct: HiBiT; host or cells: B16F10.4
Sequence (Q06180 1-406): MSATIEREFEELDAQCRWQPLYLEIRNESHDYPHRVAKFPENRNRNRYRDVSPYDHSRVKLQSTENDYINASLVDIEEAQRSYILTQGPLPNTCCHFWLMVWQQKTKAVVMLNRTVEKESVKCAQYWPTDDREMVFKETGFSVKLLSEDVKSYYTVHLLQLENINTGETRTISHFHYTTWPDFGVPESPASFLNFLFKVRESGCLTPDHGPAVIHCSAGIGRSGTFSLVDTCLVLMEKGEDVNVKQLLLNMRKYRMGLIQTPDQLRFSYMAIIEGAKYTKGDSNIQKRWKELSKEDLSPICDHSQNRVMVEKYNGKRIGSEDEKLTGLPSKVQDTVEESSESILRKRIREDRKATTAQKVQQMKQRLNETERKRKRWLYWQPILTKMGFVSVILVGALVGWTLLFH
Experiment: HiBiT Degradation B16F10.4 PTPN2
Format: cell-based
Conditions: 24.0 hours

Molecule: O=C(O)COc1c(C(=O)O)sc(-c2cccc(NC3CCN(S(=O)(=O)Cc4cccc(NC(=O)CCN5CCC(Nc6cccc7c6CN(C6CCC(=O)NC6=O)C7=O)CC5)c4)CC3)c2)c1Cl (stereo not drawn)
DC50: ≥ 1 µM
--
Molecule: Cn1c(=O)n(C2CCC(=O)NC2=O)c2ccc(C3CCN(C(=O)Nc4cccc(CS(=O)(=O)N5CC[C@H](Nc6cccc(-c7sc(C(=O)O)c(OCC(=O)O)c7Cl)c6F)CC5(C)C)c4)CC3)cc21 (stereo partly drawn)
DC50: < 0.05 µM
--
Molecule: CC1(C)C[C@@H](Nc2cccc(-c3sc(C(=O)O)c(OCC(=O)O)c3Cl)c2)CCN1S(=O)(=O)Cc1cccc(NC(=O)N2CCN(C(=O)CNc3cccc4c3CN(C3CCC(=O)NC3=O)C4=O)CC2)c1 (stereo partly drawn)
DC50: 0.2 to 1 µM
--
Molecule: Cn1c(=O)n(C2CCC(=O)NC2=O)c2ccc(N3CCN(C(=O)Nc4cccc(CS(=O)(=O)N5CC[C@H](Nc6cccc(-c7sc(C(=O)O)c(OCC(=O)O)c7Cl)c6)CC5(C)C)c4)CC3)cc21 (stereo partly drawn)
DC50: 0.05 to 0.2 µM

Task item: Recall the reported DC50 of Cn1c(=O)n([C@H]2CCC(=O)NC2=O)c2ccc([C@@H]3CCN(C(=O)Nc4cccc(CS(=O)(=O)N5CC[C@H](Nc6cccc(-c7sc(C(=O)O)c(OCC(=O)O)c7Cl)c6)CC5(C)C)c4)CC3(F)F)cc21 (single isomer, unassigned) [Example 169a] on PTPN2 (B16F10.4 cells) (Mus musculus) and write it down.
Reply: < 0.05 µM

Task item: Recall the reported DC50 of CC1(C)C[C@@H](Nc2cccc(-c3sc(C(=O)O)c(OCC(=O)O)c3Cl)c2)CCN1S(=O)(=O)Cc1cccc(NC(=O)NCCCc2ccc3c4c(cccc24)C(=O)N3C2CCC(=O)NC2=O)c1 (stereo partly drawn) on PTPN2 (B16F10.4 cells) (Mus musculus) and write it down.
Reply: < 0.05 µM

Task item: Recall the reported DC50 of CC1(C)C[C@@H](Nc2cccc(-c3sc(C(=O)O)c(OCC(=O)O)c3Cl)c2)CCN1S(=O)(=O)Cc1cccc(NC(=O)N2CCC(c3ccc4c5c(cccc35)N(C3CCC(=O)NC3=O)C4=O)CC2)c1 (stereo partly drawn) on PTPN2 (B16F10.4 cells) (Mus musculus) and write it down.
Reply: 0.05 to 0.2 µM

Task item: Recall the reported DC50 of CC1(C)C[C@@H](Nc2cccc(-c3sc(C(=O)O)c(OCC(=O)O)c3Cl)c2)CCN1S(=O)(=O)Cc1cccc(NC(=O)N2CCCN(c3ccc4c5c(cccc35)C(=O)N4C3CCC(=O)NC3=O)CC2)c1 (stereo partly drawn) on PTPN2 (B16F10.4 cells) (Mus musculus) and write it down.
Reply: 0.05 to 0.2 µM

Task item: Recall the reported DC50 of Cn1c(=O)n(C2CCC(=O)NC2=O)c2ccc(C3CCN(C(=O)Nc4cccc(CS(=O)(=O)N5CC[C@H](Nc6cccc(-c7sc(C(=O)O)c(OCC(=O)O)c7Cl)c6)CC5(C)C)c4)CC3)cc21 (stereo partly drawn) on PTPN2 (B16F10.4 cells) (Mus musculus) and write it down.
Reply: < 0.05 µM

----------
Target: PTPN2 (B16F10.4 cells) (Mus musculus)
Construct: HiBiT; host or cells: B16F10.4
Sequence (Q06180 1-406): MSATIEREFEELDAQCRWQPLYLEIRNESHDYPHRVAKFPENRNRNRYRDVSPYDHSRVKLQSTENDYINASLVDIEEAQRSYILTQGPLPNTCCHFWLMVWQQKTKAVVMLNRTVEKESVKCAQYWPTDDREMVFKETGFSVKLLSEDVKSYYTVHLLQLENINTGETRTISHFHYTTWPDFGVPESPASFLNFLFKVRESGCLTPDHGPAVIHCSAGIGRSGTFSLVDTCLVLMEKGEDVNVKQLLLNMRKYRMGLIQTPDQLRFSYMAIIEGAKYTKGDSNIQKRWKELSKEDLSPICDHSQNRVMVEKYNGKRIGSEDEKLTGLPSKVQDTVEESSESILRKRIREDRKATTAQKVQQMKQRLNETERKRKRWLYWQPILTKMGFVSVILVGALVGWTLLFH
Assay: HiBiT Degradation B16F10.4 PTPN2
Assay type: cell-based
Details: 24.0 hours
Recorded DC50 for the following compounds

Compound: Cn1nc(C2CCC(=O)NC2=O)c2ccc(C3CCN(C(=O)Nc4cccc(CS(=O)(=O)N5CC[C@@H](Nc6cccc(-c7sc(C(=O)O)c(OCC(=O)O)c7Cl)c6)CC5(C)C)c4)CC3(F)F)cc21 (stereo partly drawn)
Assay endpoint: DC50
Result: < 0.05 µM

Compound: CC1(C)C[C@@H](Nc2cccc(-c3sc(C(=O)O)c(OCC(=O)O)c3Cl)c2)CCN1S(=O)(=O)Cc1cccc(NC(=O)N2CCC(Oc3ccc4c(c3)CN(C3CCC(=O)NC3=O)C4=O)CC2)c1 (stereo partly drawn)
Assay endpoint: DC50
Result: ≥ 1 µM

Task item: Tell me its DC50 given CC1(C)C[C@@H](Nc2cccc(-c3sc(C(=O)O)c(OCC(=O)O)c3Cl)c2)CCN1S(=O)(=O)Cc1cccc(NC(=O)C2CCN(C(=O)COc3cccc4c3C(=O)N(C3CCC(=O)NC3=O)C4=O)CC2)c1 (stereo partly drawn) as the entry.
Reply: ≥ 1 µM

----------
Molecular target: PTPN2 (B16F10.4 cells) (Mus musculus, UniProt Q06180)
Construct: HiBiT; host or cells: B16F10.4
Assay: HiBiT Degradation B16F10.4 PTPN2
Format: cell-based
Details: 24.0 hours
Assay endpoint: DC50

Solved entries:
Molecule: Cn1c(=O)n(C2CCC(=O)NC2=O)c2ccc(C3CCN(C(=O)Nc4cc(CS(=O)(=O)N5CC[C@@H](Nc6cccc(-c7sc(C(=O)O)c(OCC(=O)O)c7Cl)c6)CC5(C)C)ccc4F)CC3)cc21 (stereo partly drawn) [Example 120]
DC50: < 50 nM
//
Molecule: Cc1cc2cc(C3CCN(C(=O)Nc4cccc(CS(=O)(=O)N5CC[C@H](Nc6cccc(-c7sc(C(=O)O)c(OCC(=O)O)c7Cl)c6)CC5(C)C)c4)CC3)ccc2n1C1CCC(=O)NC1=O (stereo partly drawn) [Example 208]
DC50: 200 to 1000 nM

// below: DC50 requested for another molecule
Task item: Recall the reported DC50 of Cn1c(=O)n(C2CCC(=O)NC2=O)c2ccc(NC3CCN(C(=O)Nc4cccc(CS(=O)(=O)N5CC[C@H](Nc6cccc(-c7sc(C(=O)O)c(OCC(=O)O)c7Cl)c6)CC5(C)C)c4)CC3)cc21 (stereo partly drawn) [Example 81] on PTPN2 (B16F10.4 cells) (Mus musculus, UniProt Q06180) and write it down.
Reply: 50 to 200 nM

----------
Recorded DC50 for the following compounds
Target: PTPN2 (HiBIT-PTPN2 in 293T.109 cells) (Homo sapiens, UniProt P17706)
Construct: expressed in transfected cells; host or cells: 293T.109 (293T WT from ATCC)
Sequence (P17706 whole entry, species assumed): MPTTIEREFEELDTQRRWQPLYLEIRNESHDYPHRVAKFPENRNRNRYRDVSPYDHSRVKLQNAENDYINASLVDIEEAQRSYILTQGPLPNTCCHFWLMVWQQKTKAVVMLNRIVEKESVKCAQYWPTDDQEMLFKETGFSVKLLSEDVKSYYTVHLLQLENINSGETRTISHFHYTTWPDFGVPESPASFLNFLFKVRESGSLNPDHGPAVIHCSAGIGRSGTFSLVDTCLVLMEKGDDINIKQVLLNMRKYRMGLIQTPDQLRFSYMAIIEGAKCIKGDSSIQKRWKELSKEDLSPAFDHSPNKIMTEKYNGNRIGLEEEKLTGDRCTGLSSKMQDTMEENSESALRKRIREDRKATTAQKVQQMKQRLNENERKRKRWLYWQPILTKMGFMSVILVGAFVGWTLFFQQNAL
Test: HiBiT Degradation 293T.109 PTPN2 (Nano-Glo HiBiT Lytic Assay)
Format: cell-based
Settings: 24.0 hours

Compound: CC1(C)C[C@@H](Nc2cccc(-c3sc(C(=O)O)c(OCC(=O)O)c3Cl)c2)CCN1S(=O)(=O)Cc1cccc(NC(=O)C2CCN(C(=O)CNc3ccc4c(c3)C(=O)N(C3CCC(=O)NC3=O)C4=O)CC2)c1 (some centres unmarked) [Example 43]
DC50: 50 to 200 nM
//
Compound: CC1(C)C[C@@H](Nc2cccc(-c3sc(C(=O)O)c(OCC(=O)O)c3Cl)c2)CCN1S(=O)(=O)Cc1cccc(N2CCN(CCCc3ccc4c5c(cccc35)C(=O)N4C3CCC(=O)NC3=O)C2=O)c1 (some centres unmarked) [Example 202]
DC50: 200 to 1000 nM
//
Compound: O=C(O)COc1c(C(=O)O)sc(-c2cccc(NC3CCN(S(=O)(=O)Cc4cccc(NC(=O)CCCCCNC(=O)CNc5cccc6c5CN(C5CCC(=O)NC5=O)C6=O)c4)CC3)c2)c1Cl (centres unmarked) [Example 21]
DC50: 200 to 1000 nM

Task item: Tell me its DC50 given O=C(O)COc1c(C(=O)O)sc(-c2cccc(NC3CCN(S(=O)(=O)Cc4cccc(NC(=O)CN5CCC(c6ccc7c(c6)CN(C6CCC(=O)NC6=O)C7=O)CC5)c4)CC3)c2)c1Cl (centres unmarked) [Example 45] as the entry.
Reply: 200 to 1000 nM

Task item: Tell me its DC50 given CC1(C)C[C@@H](Nc2cccc(-c3sc(C(=O)O)c(OCC(=O)O)c3Cl)c2)CCN1S(=O)(=O)Cc1cccc(N2CCN(C3CCN(c4ccc5c6c(cccc46)C(=O)N5C4CCC(=O)NC4=O)CC3)C2=O)c1 (some centres unmarked) [Example 189] as the entry.
Reply: < 50 nM
